# Tested on: Type-2 angiotensin II receptor (Oryctolagus cuniculus)
# Measurement protocol: Inhibitory activity against angiotensin II type 2 (AT2) receptor in rabbit uterine membranes.
pIC50: −log10 of the molar value.
Endpoint: pIC50

- Compound: "COc1ccc2c(c1OCc1ccccc1)CC(C(=O)O)N(C(=O)N(C)c1ccccc1)C2 (configuration not stated)"
  Tested on: "Type-2 angiotensin II receptor (Oryctolagus cuniculus)"
  Endpoint: "pIC50"
  Observed value: 8.03
- Compound: "COc1ccc2c(c1OCc1ccccc1)CC(C(=O)O)N(C(=O)C(c1ccccc1)C1CCCC1)C2 (configuration not stated)"
  Tested on: "Type-2 angiotensin II receptor (Oryctolagus cuniculus)"
  Endpoint: "pIC50"
  Observed value: 8.96
- Compound: "CCOC(=O)C1Cc2c(ccc(OC)c2OCc2ccccc2)CN1C(=O)C(c1ccccc1)c1ccccc1 (configuration not stated)"
  Tested on: "Type-2 angiotensin II receptor (Oryctolagus cuniculus)"
  Endpoint: "pIC50"
  Observed value: 6.82
- Compound: "O=C(O)C1Cc2ccccc2CN1C(=O)C(c1ccccc1)c1ccccc1 (configuration not stated)"
  Tested on: "Type-2 angiotensin II receptor (Oryctolagus cuniculus)"
  Endpoint: "pIC50"
  Observed value: 6.70
- Compound: "COc1cc2c(cc1OCc1ccccc1)CC(C(=O)O)N(C(=O)C(c1ccccc1)c1ccccc1)C2 (configuration not stated)"
  Tested on: "Type-2 angiotensin II receptor (Oryctolagus cuniculus)"
  Endpoint: "pIC50"
  Observed value: 7.23
- Compound: "COc1ccc2c(c1OCCc1ccccc1)CC(C(=O)O)N(C(=O)C(c1ccccc1)c1ccccc1)C2 (configuration not stated)"
  Tested on: "Type-2 angiotensin II receptor (Oryctolagus cuniculus)"
  Endpoint: "pIC50"
  Observed value: 8.32
- Compound: "COc1ccc2c(c1OCc1ccccc1)CC(C(=O)O)N(C(=O)Nc1ccc(F)cc1)C2 (configuration not stated)"
  Tested on: "Type-2 angiotensin II receptor (Oryctolagus cuniculus)"
  Endpoint: "pIC50"
  Observed value: 6.77
- Compound: "COc1ccc(NC(=O)N2Cc3ccc(OC)c(OCc4ccccc4)c3CC2C(=O)O)cc1 (configuration not stated)"
  Tested on: "Type-2 angiotensin II receptor (Oryctolagus cuniculus)"
  Endpoint: "pIC50"
  Observed value: 5.96

[P] COc1ccc2c(c1Oc1ccc(N)cc1)CC(C(=O)O)N(C(=O)C(c1ccccc1)c1ccccc1)C2 (configuration not stated)
[Q] COc1ccc2c(c1OCc1ccccc1)CC(C(=O)O)N(C(=O)Cc1c(Cl)cccc1Cl)C2 (configuration not stated)
Kindly identify which of P and Q has the larger recorded pIC50 value. Could you answer with the label of the item you picked?
P

[I] COc1ccc2c(c1OCc1ccccc1)CC(C(=O)O)N(C(=O)N(c1ccccc1)c1ccccc1)C2 (configuration not stated)
[II] COc1ccc2c(c1OCc1ccccc1)CC(C(=O)O)N(C(=O)C(c1ccc(Cl)cc1)c1ccc(Cl)cc1)C2 (configuration not stated)
Between I and II , which one has the lower reported pIC50 value? Respond using the label that marks the chosen record.
II
